molecular target: UniProt P42336; experiment: Determination of kinetic constants (kinact, Ki) for p110α by LanthaScreen Technology; format: binding; conditions: dissociation constant of the first reversible binding; global fitting with KinTek; read-out: Ki PI3Kα
measurementKind: pKi
# reply with the number alone; pKi is -log10 of concentration in mol/L

> print(dat)
                                 smilestext     assaytarget  assayvalue
1  CC(C)=CC(=O)CCCC(=O)N1CCN(c2nc(-c3cnc(N)nc3C(F)F)nc(N3CCOCC3)n2)CC1  UniProt P42336        8.09
2  C=CC(=O)CCCCC(=O)N1CCN(c2nc(-c3cnc(N)nc3C(F)F)nc(N3CCOCC3)n2)CC1  UniProt P42336        8.23
3  C=CC(=O)N1CCC(C(=O)N2CCN(c3nc(-c4cnc(N)nc4C(F)F)nc(N4CCOCC4)n3)CC2)CC1  UniProt P42336        7.96
4  C/C=C/C(=O)CCCCC(=O)N1CCN(c2nc(-c3cnc(N)nc3C(F)F)nc(N3CCOCC3)n2)CC1  UniProt P42336        8.24
5  C/C=C/C(=O)CCCCCC(=O)N1CCN(c2nc(-c3cnc(N)nc3C(F)F)nc(N3CCOCC3)n2)CC1  UniProt P42336        7.93
6  C=CC(=O)N1CCC(C(=O)N(C)CCC(=O)N2CCN(c3nc(-c4cnc(N)nc4C(F)F)nc(N4CCOCC4)n3)CC2)CC1  UniProt P42336        7.84

Qu. I'd like to know its pKi. The compound in question is C/C=C/C(=O)CCC(=O)N1CCN(c2nc(-c3cnc(N)nc3C(F)F)nc(N3CCOCC3)n2)CC1
Ans. 8.82

* * *

assay: PBS solubility; assay type: physicochemical; settings: aqueous buffer, pH 7.4, 3 independent measurements
Please note: yes (1) applies when solubility is 200 µM or greater, and no (0) applies otherwise.

> print(dat)
                                   molecule  classification
1  C=CC(=O)N1CCC(Cc2cccc(C(=O)N3CCN(c4nc(-c5cnc(N)nc5C(F)F)nc(N5CCOCC5)n4)CC3)c2)CC1          no (0)
2  C=CC(=O)N1CCC(COCC(=O)N2CCN(c3nc(-c4cnc(N)nc4C(F)F)nc(N4CCOCC4)n3)CC2)CC1         yes (1)
3  C=CC(=O)N1CCC(CCCC(=O)N2CCN(c3nc(-c4cnc(N)nc4C(F)F)nc(N4CCOCC4)n3)CC2)CC1         yes (1)
4  C=CC(=O)N1CCC(C(=O)NCCN2CCN(c3nc(-c4cnc(N)nc4C(F)F)nc(N4CCOCC4)n3)CC2)CC1         yes (1)

Consider the record given below.
Qu. # bool: solubility of CC(C)=CC(=O)CCC(=O)N1CCN(Cc2cc3nc(-c4cccc5[nH]ncc45)nc(N4CCOCC4)c3s2)CC1 [CNX-1351, reference compound] >= 200 µM
Ans. no (0)

* * *

biological target: p110α (PI3Kα) (Homo sapiens, UniProt P42336); experiment: Determination of kinetic constants (kinact, Ki) for p110α by LanthaScreen Technology; type: binding; settings: dissociation constant of the first reversible binding; global fitting with KinTek; read-out: Ki PI3Kα
Sequence (P42336 whole entry): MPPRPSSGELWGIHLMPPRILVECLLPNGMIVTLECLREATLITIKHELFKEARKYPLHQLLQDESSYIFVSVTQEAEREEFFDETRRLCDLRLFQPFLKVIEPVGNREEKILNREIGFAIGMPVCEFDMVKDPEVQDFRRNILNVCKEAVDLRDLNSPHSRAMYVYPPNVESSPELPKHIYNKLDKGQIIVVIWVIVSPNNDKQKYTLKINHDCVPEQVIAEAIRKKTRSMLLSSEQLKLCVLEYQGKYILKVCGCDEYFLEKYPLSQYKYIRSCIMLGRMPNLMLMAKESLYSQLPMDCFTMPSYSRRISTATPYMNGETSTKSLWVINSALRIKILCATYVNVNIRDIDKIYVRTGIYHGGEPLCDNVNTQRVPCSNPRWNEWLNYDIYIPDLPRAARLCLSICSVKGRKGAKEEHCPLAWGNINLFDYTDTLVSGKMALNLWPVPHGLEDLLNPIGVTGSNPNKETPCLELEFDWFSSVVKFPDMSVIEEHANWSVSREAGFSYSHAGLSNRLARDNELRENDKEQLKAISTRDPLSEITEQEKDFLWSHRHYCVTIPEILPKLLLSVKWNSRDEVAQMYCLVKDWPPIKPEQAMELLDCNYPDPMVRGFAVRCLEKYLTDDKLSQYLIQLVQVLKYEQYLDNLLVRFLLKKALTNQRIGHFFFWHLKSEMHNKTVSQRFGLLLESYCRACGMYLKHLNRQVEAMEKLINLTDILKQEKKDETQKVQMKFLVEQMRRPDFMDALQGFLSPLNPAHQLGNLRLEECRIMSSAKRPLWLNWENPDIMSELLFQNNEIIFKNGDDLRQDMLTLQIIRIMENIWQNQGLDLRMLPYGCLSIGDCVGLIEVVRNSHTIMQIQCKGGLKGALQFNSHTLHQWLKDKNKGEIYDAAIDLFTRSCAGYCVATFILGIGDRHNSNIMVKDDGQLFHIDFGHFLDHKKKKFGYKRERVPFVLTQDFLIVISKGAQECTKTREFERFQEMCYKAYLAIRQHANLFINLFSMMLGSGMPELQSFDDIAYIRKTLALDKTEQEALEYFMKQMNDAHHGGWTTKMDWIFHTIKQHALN
Sequence (P27986 whole entry partner): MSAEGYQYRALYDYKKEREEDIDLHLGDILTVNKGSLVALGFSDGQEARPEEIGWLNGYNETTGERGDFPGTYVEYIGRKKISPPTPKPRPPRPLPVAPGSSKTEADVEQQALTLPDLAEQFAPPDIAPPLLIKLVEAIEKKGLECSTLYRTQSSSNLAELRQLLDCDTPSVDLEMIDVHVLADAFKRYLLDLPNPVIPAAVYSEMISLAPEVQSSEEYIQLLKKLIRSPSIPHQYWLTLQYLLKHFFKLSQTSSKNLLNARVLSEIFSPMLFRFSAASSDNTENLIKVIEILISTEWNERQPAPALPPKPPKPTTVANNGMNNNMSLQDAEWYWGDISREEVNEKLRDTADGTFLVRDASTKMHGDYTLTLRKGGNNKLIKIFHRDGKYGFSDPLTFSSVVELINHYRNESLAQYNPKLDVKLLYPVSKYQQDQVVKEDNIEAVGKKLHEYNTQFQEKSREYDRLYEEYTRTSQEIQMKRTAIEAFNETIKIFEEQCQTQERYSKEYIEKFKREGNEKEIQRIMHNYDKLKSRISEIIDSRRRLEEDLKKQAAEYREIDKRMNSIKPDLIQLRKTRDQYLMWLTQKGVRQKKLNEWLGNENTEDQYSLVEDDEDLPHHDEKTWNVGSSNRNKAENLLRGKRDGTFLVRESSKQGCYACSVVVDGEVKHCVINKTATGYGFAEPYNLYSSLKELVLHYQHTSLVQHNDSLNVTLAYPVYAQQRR
measurementKind: pKi
# reply with the number alone; pKi is -log10 of concentration in mol/L

Field: example entries. Status: answers known.
> print(dat)
                                   compound  measurementkind  assayvalue
1  C=CC(=O)N(C)CCCC(=O)N1CCN(c2nc(-c3cnc(N)nc3C(F)F)nc(N3CCOCC3)n2)CC1 [Compound 7]              pKi        8.14
2  C=CC(=O)NCCCC(=O)N1CCN(c2nc(-c3cnc(N)nc3C(F)F)nc(N3CCOCC3)n2)CC1 [Compound 13]              pKi        8.27
3  N#C/C(=C/C1CC1)C(=O)N1CCC(COCC(=O)N2CCN(c3nc(-c4cnc(N)nc4C(F)F)nc(N4CCOCC4)n3)CC2)CC1 [Compound 118]              pKi        9.00
4  C/C=C/C(=O)CCCC(=O)N1CCN(c2nc(-c3cnc(N)nc3C(F)F)nc(N3CCOCC3)n2)CC1 [Compound 20]              pKi        8.17

Qu. I'd like to know its pKi. The compound in question is C=CC(=O)N1CCC(CC(=O)N2CCN(c3nc(-c4cnc(N)nc4C(F)F)nc(N4CCOCC4)n3)CC2)CC1 [Compound 35]
Ans. 7.97

Qu. Also C=CC(=O)N1CCC(Cc2ccc(C(=O)N3CCN(c4nc(-c5cnc(N)nc5C(F)F)nc(N5CCOCC5)n4)CC3)cc2)CC1 [Compound 100] ?
Ans. 8.04

Qu. Also CC(C)=CC(=O)CCCCC(=O)N1CCN(c2nc(-c3cnc(N)nc3C(F)F)nc(N3CCOCC3)n2)CC1 [Compound 5] ?
Ans. 8.00

Qu. Also CCC(=O)N1CCC(C(=O)NCC(=O)N2CCN(c3nc(-c4cnc(N)nc4C(F)F)nc(N4CCOCC4)n3)CC2)CC1 [Compound 44] ?
Ans. 8.59

* * *

Reported kinact values for the following compounds.
target: p110α (PI3Kα) (Homo sapiens, UniProt P42336); test: Determination of kinetic constants (kinact, Ki) for p110α by LanthaScreen Technology; type: binding; details: maximum potential rate of covalent bond formation; global fitting with KinTek; read-out: kinact PI3Kα
Numeric only. Scale: s⁻¹

> print(dat)
                                 smilestext                               assaytarget  measurementkind  assayvalue
1  N#C/C(=C/C1CC1)C(=O)N1CCC(COCC(=O)N2CCN(c3nc(-c4cnc(N)nc4C(F)F)nc(N4CCOCC4)n3)CC2)CC1  p110α (PI3Kα) (Homo sapiens, UniProt P42336)           kinact      0.0108
2  C=CC(=O)N1CCC(C(=O)NCCCC(=O)N2CCN(c3nc(-c4cnc(N)nc4C(F)F)nc(N4CCOCC4)n3)CC2)CC1  p110α (PI3Kα) (Homo sapiens, UniProt P42336)           kinact    0.000195
3  C=CC(=O)N1CCC(C(=O)NCCC(=O)N2CCN(c3nc(-c4cnc(N)nc4C(F)F)nc(N4CCOCC4)n3)CC2)CC1  p110α (PI3Kα) (Homo sapiens, UniProt P42336)           kinact    0.000253
4  C=CC(=O)N1CCC(Cc2ccc(C(=O)N3CCN(c4nc(-c5cnc(N)nc5C(F)F)nc(N5CCOCC5)n4)CC3)cc2)CC1  p110α (PI3Kα) (Homo sapiens, UniProt P42336)           kinact    0.000123
5  C=CC(=O)N1CCC(C(=O)N2CCN(c3nc(-c4cnc(N)nc4C(F)F)nc(N4CCOCC4)n3)CC2)CC1  p110α (PI3Kα) (Homo sapiens, UniProt P42336)           kinact    5.77e-05

Please examine the following record next.
Qu. I'd like to know its kinact. The compound in question is C=CC(=O)CCCCC(=O)N1CCN(c2nc(-c3cnc(N)nc3C(F)F)nc(N3CCOCC3)n2)CC1
Ans. 0.0245

* * *

molecular target: UniProt:P42336; assay: Determination of kinetic constants (kinact, Ki) for p110α by LanthaScreen Technology; format: binding; conditions: read-out: kinact/Ki PI3Kα
Decision: kinact/KI beneath 20000 M⁻¹ s⁻¹ gives y; kinact/KI meeting or exceeding 20000 M⁻¹ s⁻¹ gives n.

Examples from the recorded data:
> print(dat)
                                   compound  classification
1  C=CC(=O)CCCCC(=O)N1CCN(c2nc(-c3cnc(N)nc3C(F)F)nc(N3CCOCC3)n2)CC1 [Compound 1]               n
2  CN(C)C/C=C/C(=O)N1CCC(C(=O)N(C)CCC(=O)N2CCN(c3nc(-c4cnc(N)nc4C(F)F)nc(N4CCOCC4)n3)CC2)CC1 [Compound 58]               n
3  C/C=C/C(=O)CCCCCC(=O)N1CCN(c2nc(-c3cnc(N)nc3C(F)F)nc(N3CCOCC3)n2)CC1 [Compound 21]               n

Qu. Say whether its kinact/KI is strictly beneath 20000 M⁻¹ s⁻¹. Entry: C=CC(=O)NCCCC(=O)N1CCN(c2nc(-c3cnc(N)nc3C(F)F)nc(N3CCOCC3)n2)CC1 [Compound 13]
Ans. y
